- subject of test: human trypsin
- Construct: Purified human trypsin was diluted into assay buffer to a concentration of 10 nM
- assay info: In vitro inhibition of purified enzymes, Ki determination: trypsin (hydrolysis of S-2765)
- measurement context: substrate S-2765, 37° C., pH 7.5
Structures can show the parent of a compound that is named as a salt.
Measured Ki values are reported for all entries that follow.

Inquiry: Param readout= Ki; system= human trypsin; entry= CN(C)CCCN(c1ccncc1)c1ccc(-c2ccc3c(C(N)=O)nn(-c4ccc5onc(N)c5c4)c3c2F)c(F)c1 [Example 59, dimesylate salt] ; returns value.
Reply text: > 10 µM

Inquiry: Item: `CN(C)Cc1cnccc1-c1ccc(-c2ccc3c(C(N)=O)nn(-c4ccc5onc(N)c5c4)c3c2F)c(F)c1` Test system: human trypsin Read-out: Ki Value: ?
Reply text: > 10 µM

Inquiry: Param readout = Ki; param system = human trypsin; param query = `Cc1nn(-c2cccc(CN)c2)c2c(F)c(-c3ccc(N4CCCCC4=O)cc3)ccc12` ; response: value
Reply text: > 10 µM

Inquiry: # returns recorded Ki (system: human trypsin) for `O=C1CCCCN1c1ccc(-c2ccc3c(C(F)(F)F)nn(-c4cccc(Cl)c4)c3c2F)c(F)c1`
Reply text: > 10 µM

Inquiry: Lab request: please report Ki under test system human trypsin for `Cc1nn(-c2cccc(CN)c2)c2c(F)c(-c3ccc(N(C)c4ccncc4)cc3F)ccc12`
Reply text: 2.9 µM

Inquiry: // map `Cc1nn(-c2ccc3onc(N)c3c2)c2c(F)c(-c3ccc(N4CCCCC4=O)cc3)ccc12` to recorded Ki (system: human trypsin)
Reply text: > 10 µM

Inquiry: Please provide the recorded Ki for `Cc1nn(-c2cccc(C(=N)N)c2)c2c(F)c(-c3ccc(N4CCCCC4=O)cc3F)ccc12` , tested on human trypsin.
Reply text: 0.14 µM

###

- subject of test: human trypsin
- Construct: Purified human trypsin was diluted into assay buffer to a concentration of 10 nM
- assay info: In vitro inhibition of purified enzymes, Ki determination: trypsin (hydrolysis of S-2765)
- measurement context: substrate S-2765, 37° C., pH 7.5
recorded metric: Ki (nM)

compound	unit descriptor	Ki
Cc1nn(-c2cccc(CN)c2)c2c(F)c(-c3ccc(C#Cc4ccc5nc(N)sc5c4)cc3)ccc12 [Example 15]	nM	1590

[a] Cc1nn(-c2cccc(CN)c2)c2c(F)c(-c3ccc(N4CCCC4=O)cc3)ccc12 [Example 7]
[b] Cc1nn(-c2cccc(CN)c2)c2c(F)c(-c3ccc(-c4ccccc4S(C)(=O)=O)cc3F)ccc12 [Example 82]
Inquiry: // max by Ki over [ a , b ] Refer to your chosen entry by its label in the reply.
Reply text: b

###

- subject of test: UniProt P00742
- assay info: In vitro inhibition of purified enzymes, Ki determination: Factor Xa (hydrolysis of S-2765)
- Type: biochemical
- Set-up: purchased Enzyme Research Laboratories (South Bend, Ind.)
- measurement context: purified activated human Factor X, substrate S-2765, 37° C., pH 7.5; read-out: KI FXa
Structures can show the parent of a compound that is named as a salt.
recorded metric: Ki (nM)

molecule	subject of test	Ki / nM
CN(C)CCCN(c1ccncc1)c1ccc(-c2ccc3c(C(N)=O)nn(-c4ccc5onc(N)c5c4)c3c2F)c(F)c1 [Example 59, dimesylate salt]	UniProt P00742	5

[P] Cc1nn(-c2cccc(CN)c2)c2c(F)c(-c3ccc(N(C)c4ccncc4)cc3F)ccc12
[Q] Cc1nn(-c2cccc(CN)c2)c2c(F)c(-c3ccc(N4CCCC4=O)cc3)ccc12
Inquiry: Min Ki? P | Q API: response body contains the label of the selected item.
Reply text: P
(P: 33 nM, Q: 220 nM)

[P] Cc1nn(-c2cccc(CN)c2)c2c(F)c(-c3ccc(-c4ccccc4S(C)(=O)=O)cc3F)ccc12
[Q] O=C1CCCCN1c1ccc(-c2ccc3c(C(F)(F)F)nn(-c4cccc(Cl)c4)c3c2F)c(F)c1
Inquiry: P or Q : whose Ki is greater? Which one? Tell me its label.
Reply text: Q

[A] Cc1nn(-c2ccc3onc(N)c3c2)c2c(F)c(-c3ccc(-n4ccccc4=O)cc3F)ccc12
[B] Cc1nn(-c2cccc(CN)c2)c2c(F)c(-c3ccc(N4CCCCC4=O)cc3)ccc12
Inquiry: Form: Entry with minimum Ki (choose one): A / B Could you answer with the label of the item you picked?
Reply text: A
(A: 40 nM, B: 120 nM)

###

- subject of test: Factor Xa (Homo sapiens)
- Sequence (P00742 235-488 limits assumed): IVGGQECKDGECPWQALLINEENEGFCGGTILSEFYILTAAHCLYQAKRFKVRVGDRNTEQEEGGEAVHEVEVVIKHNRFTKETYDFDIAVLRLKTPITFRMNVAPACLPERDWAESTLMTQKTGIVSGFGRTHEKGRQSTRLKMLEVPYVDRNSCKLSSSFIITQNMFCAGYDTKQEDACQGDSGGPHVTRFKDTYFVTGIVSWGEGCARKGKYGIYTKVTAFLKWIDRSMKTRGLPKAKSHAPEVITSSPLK
- Sequence (P00742 41-179 partner limits assumed): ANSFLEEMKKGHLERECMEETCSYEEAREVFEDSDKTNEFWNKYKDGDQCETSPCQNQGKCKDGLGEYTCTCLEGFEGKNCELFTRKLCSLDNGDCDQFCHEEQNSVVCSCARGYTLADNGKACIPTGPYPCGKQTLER
- assay info: In vitro inhibition of purified enzymes, Ki determination: Factor Xa (hydrolysis of S-2765)
- Format: biochemical
- Design: purchased Enzyme Research Laboratories (South Bend, Ind.)
- measurement context: purified activated human Factor X, substrate S-2765, 37° C., pH 7.5; read-out: KI FXa
pKi: −log10 of the molar value.
recorded metric: pKi

[I] Cc1nn(-c2cccc(C(=N)N)c2)c2c(F)c(-c3ccc(N4CCCCC4=O)cc3F)ccc12 [Example 75]
[II] Cc1nn(-c2cccc(CN)c2)c2c(F)c(-c3ccc(C#Cc4ccc5nc(N)sc5c4)cc3)ccc12 [Example 15]
[III] CN(C)Cc1cnccc1-c1ccc(-c2ccc3c(C(N)=O)nn(-c4ccc5onc(N)c5c4)c3c2F)c(F)c1 [Example 66]
Inquiry: List items by pKi in falling order. // respond by listing labels in the order requested
Reply text: I, III, II

###

- subject of test: human trypsin
- Construct: Purified human trypsin was diluted into assay buffer to a concentration of 10 nM
- assay info: In vitro inhibition of purified enzymes, Ki determination: trypsin (hydrolysis of S-2765)
- measurement context: substrate S-2765, 37° C., pH 7.5
The molecules listed here are annotated with their Ki.

Below are worked cases with known answers.
Cc1nn(-c2ccc3onc(N)c3c2)c2c(F)c(-c3ccc(-n4ccccc4=O)cc3F)ccc12 > 10 µM
Cc1nn(-c2ccc3ccnc(N)c3c2)c2c(F)c(-c3ccc(-c4ccccc4S(C)(=O)=O)cc3F)ccc12 > 10 µM

Could you now consider this next molecule?
Inquiry: Requested field: Ki. Item: `NC(=O)c1nn(-c2ccc3onc(N)c3c2)c2c(F)c(-c3ccc(N4CCOCC4=O)cn3)ccc12`
Reply text: > 10 µM
